Overview of recorded Ratio for various binders
# Target entity: T1, ACVR2B-Fc fusion protein (human, UniProt Q13705 19-137)
# T1 construct: also called water-soluble ACVR2B
# T1 sequence: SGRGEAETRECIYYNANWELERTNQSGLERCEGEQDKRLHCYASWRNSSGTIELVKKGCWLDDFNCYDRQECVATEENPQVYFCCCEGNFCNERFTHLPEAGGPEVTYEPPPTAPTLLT
# Assay comment: phage ELISA; OD on ACVR2B divided by OD on a-myc

Solved cases (3 shown):
binder="ACVR2B C08 (monoclonal scFv-phage) (scFv, V domains shown, also called C8) VH: VQLVESGGGLVQPGGSLRLSCSASGFTFSSYAMHWVRQAPGKGLEYVSAISSNGGSTYYADSVKGRFTISRDNSKNTLYLQMNSLRAEDTAVYYCAKTYGGYGNAFDIWGQGTMITVSS VL: DIQMTQSPSSVSASVGDRVTITCRASQGISRWLAWYQQKPGKAPKLLIYAASNLQSGVPSRFSGSGSGTDFTLTINSLQPEDFATYFCQQGKSFPYTFGPGTKVEIK" endpoint=Ratio measured_value=2.45
binder="ACVR2B A09 (monoclonal scFv-phage) (scFv, V domains shown, also called A9) VH: VQLVESGGGLVQPGRSLRLSCAASGFTFDSYWMSWVRQAPGKGLEWVANIKYDGSEKHYMDSVKGRFTISRDNAKNSVYLQMNSLRAEDTAVYYCAKGAWLDYWGQGTQVTVSS VL: IQMTQSPSAMSASVGDRVTITCRASQGISNYLAWFQQKPGKVPKRLIYAASSLQSGVPSRFSGSGSGTGFTLTITSLQPEDFATYYCLQHKSYPYTFGQGTKLEIK" endpoint=Ratio measured_value=1.86
binder="ACVR2B A06 (monoclonal scFv-phage) (scFv, V domains shown, also called A6) VH: VQLVQSGGGLVQPGRSLRLSCTASGFTFGDYAMSWVRQAPGKGLEWVGFIRSKRYDGTAEYAASVKGRFTISRDDSKNSLYLQMNSLRAEDTAVYYCARGHYAMDVWGQGTTVTVSS VL: DIQMTQSPSSLSASVGDRVTITCRASRSISNYLNWYQQKPGKAPKLLIYAASSLQSGVPSRFSGSGSGTDFTLTISSLQPEDFATYYCQQSYDTPFTFGLGNQLEIK" endpoint=Ratio measured_value=4.21

# input for lookup
I'd like to know its Ratio. The binder in question is ACVR2B B12 (monoclonal scFv-phage) (scFv, V domains shown) VH: VQLVQSGAEVKKPGESLKISCKTSGYTFTHYWIGWVRQMPGKGLEWMGRINPTDSYADYSPSFQGHVIMSVDKSVSTAYLHWNSLKASDTAMYYCARGTALGVWGQGTTVTVSS VL: IQMTQSPSAMSASVGDRVTITCRASQGISNYLAWFQQKPGKVPKRLIYAASSLQSGVPSRFSGSGSGTEFTLTITSLQPEDFATYYCLQHKSYPYTFGQGTKLEIK
1.89

Origin of values: patent US20150030595A1
